These data points were gathered from ChEMBL document CHEMBL1131887.

Molecular target: Potassium voltage-gated channel subfamily A member 3 (Homo sapiens, UniProt P22001)
Sequence (P22001 whole entry): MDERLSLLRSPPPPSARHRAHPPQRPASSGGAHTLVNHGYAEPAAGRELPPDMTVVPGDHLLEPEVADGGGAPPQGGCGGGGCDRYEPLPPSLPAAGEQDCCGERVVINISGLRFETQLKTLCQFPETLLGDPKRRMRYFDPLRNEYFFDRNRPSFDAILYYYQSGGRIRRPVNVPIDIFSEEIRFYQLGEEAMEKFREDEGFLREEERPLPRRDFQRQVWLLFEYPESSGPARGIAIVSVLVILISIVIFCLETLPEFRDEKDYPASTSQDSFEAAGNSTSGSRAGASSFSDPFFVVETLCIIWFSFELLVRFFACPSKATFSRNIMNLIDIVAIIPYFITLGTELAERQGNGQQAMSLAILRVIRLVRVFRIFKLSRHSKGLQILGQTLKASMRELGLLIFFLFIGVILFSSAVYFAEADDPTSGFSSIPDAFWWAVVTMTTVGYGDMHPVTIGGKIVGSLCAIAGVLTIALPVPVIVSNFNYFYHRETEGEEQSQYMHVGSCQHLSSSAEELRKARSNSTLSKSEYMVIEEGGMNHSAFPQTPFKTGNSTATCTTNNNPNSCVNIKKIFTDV
Test: Displacement of [125I]- ChTX from human T cell voltage-gated potassium channel subunit Kv1.3
Assay type: cell-based
attribute measured: pIC50
Would you please state pIC50, meaning minus log10 of the concentration in mol/L, as a bare number?

Guide cases for pIC50, answers given:
record_smiles=CNC(=O)c1cc(/C=C/c2ccc(OCc3ccccc3)c(OCc3ccccc3)c2)ccc1-c1ccc(Cl)cc1 numeric_readout=5.54
record_smiles=CC(C)NC(=O)c1cc(/C=C/c2ccc(OCc3ccccc3)cc2)ccc1-c1ccc(Cl)cc1 numeric_readout=5.00
record_smiles=CCNC(=O)c1cc(/C=C/CCc2ccccc2)ccc1-c1ccc(Cl)cc1 numeric_readout=5.49

Lookup: Please look up its pIC50: CC(C)NC(=O)c1cc(/C=C/c2ccc(Cl)c(F)c2)ccc1-c1ccc(Cl)cc1
Found: 5.43

Lookup: Please look up its pIC50: NC(N)=NNC(=O)c1cc(/C=C/c2ccc(F)cc2)ccc1-c1ccc(Cl)cc1
Found: 5.41

###

Biological target: Potassium voltage-gated channel subfamily A member 3 (Homo sapiens, UniProt P22001)
Assay: Displacement of [125I]- ChTX from human T cell voltage-gated potassium channel subunit Kv1.3
Documented IC50 across a set of compounds
All answers are understood in µM, so give the number only.

Guide cases for IC50, answers given:
record_smiles=CCCNC(=O)c1cc(/C=C/c2ccc(F)cc2)ccc1-c1ccc(Cl)cc1 numeric_readout=9.7
record_smiles=CCCNC(=O)c1cc(/C=C/Cc2ccccc2)ccc1-c1ccc(Cl)cc1 numeric_readout=5.8
record_smiles=CC(C)NC(=O)c1cc(/C=C/Cc2ccccc2)ccc1-c1ccc(Cl)cc1 numeric_readout=5.6

Lookup: Please look up its IC50: CC(C)NC(=O)c1cc(/C=C/c2cccc(Cl)c2)ccc1-c1ccc(Cl)cc1
Found: 10.1

Lookup: Please look up its IC50: CCCCNC(=O)c1cc(/C=C/Cc2ccccc2)ccc1-c1ccc(Cl)cc1
Found: 6.1

###

Target: Potassium voltage-gated channel subfamily A member 3 (Homo sapiens)
Assay: Displacement of [125I]- ChTX from human T cell voltage-gated potassium channel subunit Kv1.3
Documented IC50 across a set of molecules
All answers are understood in µM, so give the number only.

Guide cases for IC50, answers given:
molecule=CCCNC(=O)c1cc(/C=C/CCc2ccccc2)ccc1-c1ccc(Cl)cc1 attribute_measured=IC50 numeric_readout=4
molecule=CCCCNC(=O)c1cc(/C=C/c2ccccc2F)ccc1-c1ccc(Cl)cc1 attribute_measured=IC50 numeric_readout=8

// next item, IC50 requested
Lookup: Please look up its IC50: CCCCC/N=c1\ccn(Cc2ccccc2)c2ccccc12 [CP-339818]
Found: 0.2
